B1: IQUB (parent)
chain: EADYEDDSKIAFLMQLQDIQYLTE

Variants of: B1
Assay: protein stability index of a GFP-peptide fusion (GPS, HEK-293T) (PSI 1-6); higher = more stable;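 also: lentivirally expressed fusions sorted by FACS into six bins by GFP to DsRed ratio, PSI derived from sequencing read proportions per bin multiplied by bin number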
Conditions: c terminus: a fixed tail appended
// class assignment uses protein stability index with these ranges: class 0 (below 3), class 1 (3 to below 4), class 2 (4 or more)

Examples from the recorded data:
EADYEDDSYIAFLMQLQDIQYLTE :: class 0
EADYEDDSKIAFLMQLQDIQYQTE :: class 1

QUERY: Lab log: EADYEIDSKIAFLMQLQDIQYLTE — assign protein stability index category
RESULT: class 0

QUERY: Lab log: EADYRDDSKIAFLMQLQDIQYLTE — assign protein stability index category
RESULT: class 0

QUERY: Lab log: EADYLDDSKIAFLMQLQDIQYLTE — assign protein stability index category
RESULT: class 0

QUERY: Lab log: EADYEDDSKIAFLMQLQDICYLTE — assign protein stability index category
RESULT: class 0

QUERY: Lab log: MADYEDDSKIAFLMQLQDIQYLTE — assign protein stability index category
RESULT: class 0

QUERY: Lab log: EADYEDDSKIAFLMQLQDIQYLPE — assign protein stability index category
RESULT: class 2

QUERY: Lab log: EADYEDDSKFAFLMQLQDIQYLTE — assign protein stability index category
RESULT: class 0

QUERY: Lab log: EADYEDDSKIAFLMQLQDYQYLTE — assign protein stability index category
RESULT: class 1

QUERY: Lab log: EAVYEDDSKIAFLMQLQDIQYLTE — assign protein stability index category
RESULT: class 0

QUERY: Lab log: EADYEDDSKIAFLMQWQDIQYLTE — assign protein stability index category
RESULT: class 1

QUERY: Lab log: EADYEDDSKIAFLMQLPDIQYLTE — assign protein stability index category
RESULT: class 1

QUERY: Lab log: EADREDDSKIAFLMQLQDIQYLTE — assign protein stability index category
RESULT: class 1

QUERY: Lab log: EADYEDDSKIAFLMQLQDIQELTE — assign protein stability index category
RESULT: class 2

QUERY: Lab log: EADYEDKSKIAFLMQLQDIQYLTE — assign protein stability index category
RESULT: class 0

QUERY: Lab log: EADYEDDEKIAFLMQLQDIQYLTE — assign protein stability index category
RESULT: class 1

QUERY: Lab log: EADYEDDSKIAFLMQLCDIQYLTE — assign protein stability index category
RESULT: class 0

QUERY: Lab log: EADYEDDSKIAFLMQLQPIQYLTE — assign protein stability index category
RESULT: class 0

QUERY: Lab log: EADYEHDSKIAFLMQLQDIQYLTE — assign protein stability index category
RESULT: class 0

QUERY: Lab log: EADYEDDSKIAFWMQLQDIQYLTE — assign protein stability index category
RESULT: class 1

QUERY: Lab log: EADYEEDSKIAFLMQLQDIQYLTE — assign protein stability index category
RESULT: class 0

QUERY: Lab log: HADYEDDSKIAFLMQLQDIQYLTE — assign protein stability index category
RESULT: class 1

QUERY: Lab log: EADYEDDDKIAFLMQLQDIQYLTE — assign protein stability index category
RESULT: class 1

QUERY: Lab log: EADYEDDSKIAFLMQLYDIQYLTE — assign protein stability index category
RESULT: class 0

QUERY: Lab log: EADYEDDSKIAFLMQKQDIQYLTE — assign protein stability index category
RESULT: class 2

Values were extracted from the supplement of paper PMC10567573.
